target: HLA-A*26:01; assay: IEDB peptide-MHC binding, purified MHC/direct/fluorescence; filed as Kd, often an IC50 or EC50 that approximates it; bounds were set here for any values at or beyond the usual limits of such assays; conditions: source organism: Vibrio cholerae
pKd: −log10 of the molar value.
measured attribute: pKd

Exercise: Requested field: pKd. Item: RYDYANLCQ
Solution: ≤ 4.70

====

target: HLA-A*24:02; test: IEDB peptide-MHC binding, purified MHC/direct/fluorescence; filed as Kd, often an IC50 or EC50 that approximates it; bounds were set here for any values at or beyond the usual limits of such assays; details: source organism: Mycobacterium tuberculosis str. Haarlem
measured attribute: Kd

Exercise: Requested field: Kd. Item: IMPRDSWLI
Solution: ≤ 1 nM
